Test system: MCF7 cancer cells
experiment.description: Direct cytotoxicity test of IL powders, Alamar blue assay
Assay type: cell-based, human
measurement.setup: 24 h of incubation, n = 3
IC50 MCF7 listing for selected compounds.

Below are worked cases with known answers.
- smiles.repr: "CCCCCCCCCCCCCC[n+]1ccn(C)c1.COC(=O)c1cc(C(=O)OC)cc(S(=O)(=O)[O-])c1"
  target.or.test.system: "MCF7 cancer cells"
  IC50 MCF7: "2.91 µg/mL"
- smiles.repr: "CCCCCCCCCC[n+]1ccn(C)c1.COC(=O)c1cc(C(=O)OC)cc(S(=O)(=O)[O-])c1"
  target.or.test.system: "MCF7 cancer cells"
  IC50 MCF7: "5.42 µg/mL"
- smiles.repr: "CCCCCCCCCCCCCCCC[n+]1ccn(C)c1.COC(=O)c1cc(C(=O)OC)cc(S(=O)(=O)[O-])c1"
  target.or.test.system: "MCF7 cancer cells"
  IC50 MCF7: "3.84 µg/mL"
- smiles.repr: "CCCCCCCCCCCCCCCCCCCCn1cc[n+](C)c1.COC(=O)c1cc(C(=O)OC)cc(S(=O)(=O)[O-])c1"
  target.or.test.system: "MCF7 cancer cells"
  IC50 MCF7: "4.71 µg/mL"
- smiles.repr: "CCCCCCCCCCCCCCCCCC[n+]1ccn(C)c1.COC(=O)c1cc(C(=O)OC)cc(S(=O)(=O)[O-])c1"
  target.or.test.system: "MCF7 cancer cells"
  IC50 MCF7: "1.96 µg/mL"

// below: IC50 MCF7 requested for another compound
Query block: Bench note: what IC50 MCF7 did "CCCCCCCCC[n+]1ccn(C)c1.COC(=O)c1cc(C(=O)OC)cc(S(=O)(=O)[O-])c1" show?
Result block: > 24.13 µg/mL

====

MIC listing for selected compounds.
System: Pseudomonas fluorescens
experiment.description: MIC/MBC by broth dilution, pure ILs
Assay type: cell-based
measurement.setup: 24 h, 10^6 CFU/mL, read-out: MIC
The reply should be a number in µg/mL, with the unit left off.

- smiles.repr: "CCCCCCCCCCCCn1cc[n+](C)c1.F[B-](F)(F)F"
  MIC [µg/mL]: 16.9
- smiles.repr: "CCCCCCCCCCCCCC[n+]1ccn(C)c1.F[B-](F)(F)F"
  MIC [µg/mL]: 9.16
- smiles.repr: "CCCCCCCCCCn1cc[n+](C)c1.F[B-](F)(F)F"
  MIC [µg/mL]: 38.8

// below: MIC requested for another compound
Query block: Bench note: what MIC did "CCCCCCCCCCCCCCCC[n+]1ccn(C)c1.F[B-](F)(F)F" show?
Result block: 49.3
